Data provenance: patent US9247759B2

study.system: hT2R71 (Homo sapiens (Human), UniProt P59536)
Sequence (P59536 whole entry): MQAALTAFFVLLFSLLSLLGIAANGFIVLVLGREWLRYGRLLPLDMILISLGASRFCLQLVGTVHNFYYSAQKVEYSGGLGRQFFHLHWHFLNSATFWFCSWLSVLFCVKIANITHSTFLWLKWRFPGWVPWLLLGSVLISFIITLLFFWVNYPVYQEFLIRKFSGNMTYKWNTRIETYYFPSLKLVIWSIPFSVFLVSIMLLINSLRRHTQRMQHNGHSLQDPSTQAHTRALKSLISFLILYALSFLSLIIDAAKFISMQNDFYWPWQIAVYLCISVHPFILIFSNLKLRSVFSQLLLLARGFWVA
assay.info: hT2R panel inhibition, transient HEK293 G16g44, agonist Picric Acid 10 μM
Format: cell-based
applied.conditions: HEK293, compound at 25 μM; receptor activated to EC80 with the corresponding agonist; read-out: screening result against bitter receptor 71
property: inhibition at 25 µM

>>> assay_result("COc1ccc(CN(Cc2ccccc2)S(=O)(=O)c2ccc(C(=O)O)cc2)cc1C")
"60 to 80%"
>>> assay_result("COc1ccc(CN(Cc2ccccc2)S(=O)(=O)c2ccc(CC(=O)O)cc2)cc1")
"20 to 40%"
>>> assay_result("COc1ccc(CN(C2CCCc3ccccc32)S(=O)(=O)c2ccc(C(=O)O)cc2)cc1 (stereo not shown)")
"40 to 60%"
>>> assay_result("COc1ccc(CN(Cc2ccc(C(=O)O)cc2)S(=O)(=O)c2ccc(C(=O)O)cc2)cc1")
"20 to 40%"
>>> assay_result("COc1ccc(CN(Cc2ccccc2)C(=O)c2ccc(C(=O)O)cc2)cc1")
"20 to 40%"
>>> assay_result("O=C(O)C1CCC(CN(Cc2ccc(F)cc2)S(=O)(=O)c2ccccc2)CC1 (stereo not shown)")
"40 to 60%"
>>> assay_result("COc1ccc(CN(Cc2ccccc2)S(=O)(=O)Cc2ccc(C(=O)O)cc2)cc1")
"40 to 60%"
>>> assay_result("O=C(O)c1ccc(S(=O)(=O)N(Cc2ccccc2)Cc2ccccc2Cl)cc1")
"20 to 40%"
>>> assay_result("COc1ccc(CN(Cc2ccccc2)S(=O)(=O)c2ccc(C(=O)O)cc2)cn1")
"60 to 80%"
>>> assay_result("COc1ccc(CN(Cc2ccc(NC(C)=O)cc2)S(=O)(=O)c2ccc(C(=O)O)cc2)cc1")
"20 to 40%"
>>> assay_result("COc1ccccc1CN(Cc1ccc(C(=O)O)cc1)S(=O)(=O)c1ccccc1")
"60 to 80%"
>>> assay_result("O=C(O)c1ccc(S(=O)(=O)N(Cc2ccccc2)Cc2ccco2)cc1")
"60 to 80%"
>>> assay_result("COc1cccc(CN(Cc2ccc(C(=O)O)cc2)S(=O)(=O)c2ccccc2)c1")
"60 to 80%"
>>> assay_result("O=C(O)c1ccc(CN(Cc2ccc(F)cc2)S(=O)(=O)c2ccc(O)cc2)cc1")
"20 to 40%"
>>> assay_result("O=C(O)c1ccc(S(=O)(=O)N(Cc2ccccc2)Cc2ccccc2F)cc1")
"20 to 40%"
>>> assay_result("COc1ccc(CN(Cc2ccccc2)S(=O)(=O)c2ccc(C(=O)O)cc2)c(OC)c1")
"40 to 60%"
>>> assay_result("CC(=O)Nc1ccc(S(=O)(=O)N(Cc2ccccc2)CC2CCC(C(=O)O)CC2)cc1 (stereo not shown)")
"20 to 40%"
>>> assay_result("COc1ccc(CN(c2ccccc2)S(=O)(=O)c2ccc(C(=O)O)cc2)cc1")
"40 to 60%"
>>> assay_result("COc1ccccc1CN(Cc1ccccc1)S(=O)(=O)c1ccc(C(=O)O)cc1")
"40 to 60%"
>>> assay_result("COc1ccc(CN(Cc2ccc(F)c(F)c2)S(=O)(=O)c2ccc(C(=O)O)cc2)cc1")
"60 to 80%"
>>> assay_result("N#Cc1ccccc1CN(Cc1ccccc1)S(=O)(=O)c1ccc(C(=O)O)cc1")
"40 to 60%"
>>> assay_result("CSc1ccc(CN(Cc2ccccc2)S(=O)(=O)c2ccc(C(=O)O)cc2)cc1")
"40 to 60%"
>>> assay_result("O=C(O)c1ccc(S(=O)(=O)N(Cc2ccccc2)Cc2ccc(O)cc2)cc1")
"60 to 80%"
>>> assay_result("O=C(O)c1ccc(CN(Cc2cccc(F)c2)S(=O)(=O)c2ccccc2)cc1")
"60 to 80%"
>>> assay_result("COc1ccc(CN(Cc2cccs2)S(=O)(=O)c2ccc(C(=O)O)cc2)cc1")
"20 to 40%"
>>> assay_result("COc1ccc(CN(Cc2cccc(F)c2F)S(=O)(=O)c2ccc(C(=O)O)cc2)cc1")
"60 to 80%"
>>> assay_result("O=C(O)C1CCC(CN(Cc2ccc(F)cc2)S(=O)(=O)c2ccccn2)CC1 (stereo not shown)")
"20 to 40%"
>>> assay_result("COc1ccc(CN(Cc2ccco2)S(=O)(=O)c2ccc(C(=O)O)cc2)cc1")
"60 to 80%"
>>> assay_result("COc1ccc(CN(Cc2ccoc2)S(=O)(=O)c2ccc(C(=O)O)cc2)cc1")
"60 to 80%"
>>> assay_result("O=C(O)c1ccc(S(=O)(=O)N(Cc2ccccc2)Cc2cccc(C(=O)O)c2)cc1")
"20 to 40%"
>>> assay_result("COc1ccc(CN(Cc2cc(OC)cc(OC)c2)S(=O)(=O)c2ccc(C(=O)O)cc2)cc1")
"40 to 60%"
